- experimental.target: UDP-glucuronosyltransferase 1A4 (Homo sapiens)
- Sequence (P22310 whole entry): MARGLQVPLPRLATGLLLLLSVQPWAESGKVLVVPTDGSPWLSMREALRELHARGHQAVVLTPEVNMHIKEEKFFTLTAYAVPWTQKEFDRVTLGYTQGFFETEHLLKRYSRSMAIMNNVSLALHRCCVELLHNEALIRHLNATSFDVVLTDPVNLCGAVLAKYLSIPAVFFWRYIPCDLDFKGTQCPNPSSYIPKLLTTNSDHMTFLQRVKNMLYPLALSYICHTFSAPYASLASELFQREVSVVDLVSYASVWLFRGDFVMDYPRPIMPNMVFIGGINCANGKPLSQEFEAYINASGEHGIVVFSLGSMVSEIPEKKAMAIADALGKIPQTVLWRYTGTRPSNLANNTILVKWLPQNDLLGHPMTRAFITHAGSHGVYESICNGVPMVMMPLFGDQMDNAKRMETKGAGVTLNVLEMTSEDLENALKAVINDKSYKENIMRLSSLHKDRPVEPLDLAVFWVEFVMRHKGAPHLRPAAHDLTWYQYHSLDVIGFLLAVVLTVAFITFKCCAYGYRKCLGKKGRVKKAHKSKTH
- assay.text: Drug glucuronidation reaction catalyzed by human recombinant UGT1A4
property: Vmax
Write the quantity with the unit trailing the number.

compound: CN(C)CCCN1c2ccccc2CCc2ccccc21
experimental.target: UDP-glucuronosyltransferase 1A4 (Homo sapiens)
property: Vmax
reading: 180 pmol/min/mg protein

compound: Cc1cc2c(s1)Nc1ccccc1N=C2N1CCN(C)CC1
experimental.target: UDP-glucuronosyltransferase 1A4 (Homo sapiens)
property: Vmax
reading: 2370 pmol/min/mg protein

compound: CC(O)/C(=C(\c1ccccc1)c1ccc(OCCN(C)C)cc1)c1ccccc1 (stereo in doubt; trans)
experimental.target: UDP-glucuronosyltransferase 1A4 (Homo sapiens)
property: Vmax
reading: 547 pmol/min/mg protein

Now look at this one.
**Q:** Return value of Vmax for input CC(O)/C(=C(\c1ccccc1)c1ccc(OCCN(C)C)cc1)c1ccccc1 (stereo in doubt; cis) , no commentary.
**A:** 315 pmol/min/mg protein

Source: ChEMBL document CHEMBL1908105
